Every entry's value here was drawn from patent US20240124460A1.

# Assay Target: HSP90α protein (Homo sapiens)
# Construct: purchased BPS Bioscience #50298
# Protocol Notes: HSP90α-binding FP (BODIPY) assay
# Condition Summary: FP competition with BODIPY-labeled RNK04010
Property: IC50

(Q) Which IC50 value is on record for CCOc1cc(N2CCC(C(=O)NCCOCCOCCOc3ccc(Nc4cc(-n5nc(C(F)(F)F)c6c5CC(C)(C)CC6=O)ccc4C(N)=O)cc3)CC2)ccc1Nc1ncc2c(n1)N(S(C)(=O)=O)c1ccccc1C(=O)N2C [Compound 139] ?
(A) > 1000 nM

(Q) What would you report for CCOc1cc(N2CCC(C(=O)N3CCC(N4CCN(Cc5ccc(-n6c(O)nnc6-c6cc(C(C)C)c(O)cc6O)cc5C(F)(F)F)CC4)CC3)CC2)ccc1Nc1ncc2c(n1)N(S(C)(=O)=O)c1ccccc1C(=O)N2C [Compound 069] ?
(A) 100 to 1000 nM

(Q) What would you report for CCOc1cc(N2CCC(C(=O)NCc3ccc(-n4c(O)nnc4-c4cc(C(C)C)c(O)cc4O)cc3)CC2)ccc1Nc1ncc2c(n1)N(S(C)(=O)=O)c1ccccc1C(=O)N2C [Compound 080] ?
(A) 100 to 1000 nM

---

# Assay Target: HSP90α protein (Homo sapiens, UniProt P07900)
# Construct: purchased BPS Bioscience #50298
# Protocol Notes: HSP90α-binding FP (BODIPY) assay
# Condition Summary: FP competition with BODIPY-labeled RNK04010
Property: IC50

(Q) Reported IC50 for HSP90α protein (Homo sapiens, UniProt P07900), given "CCOc1cc(N2CCC(C(=O)N3CCC(CN4CCN(C(=O)O[C@H]5CC[C@H](Nc6cc(-n7nc(C(F)(F)F)c8c7CC(C)(C)CC8=O)ccc6C(N)=O)CC5)CC4)CC3)CC2)ccc1Nc1ncc2c(n1)N(S(C)(=O)=O)c1ccccc1C(=O)N2C" ?
(A) > 1000 nM

(Q) What would you report for "CCNC(=O)c1nnc(-c2cc(CC)c(O)cc2O)n1-c1ccc(CN2CCN(CC3CCN(C(=O)C4CCN(c5ccc(Nc6ncc7c(n6)N(C)c6ccccc6C(=O)N7C)c(OCC)c5)CC4)CC3)CC2)cc1" ?
(A) < 100 nM

(Q) What would you report for "CCOc1cc(N2CCC(C(=O)N3CCC(CN4CCN(Cc5ccc(-n6c(C(=O)NC7CC7)nnc6-c6cc(CC)c(O)cc6O)cc5)CC4)CC3)CC2)ccc1Nc1ncc2c(n1)N(S(C)(=O)=O)c1ccccc1C(=O)N2C" ?
(A) < 100 nM

(Q) What would you report for CCOc1cc(N2CCC(C(=O)N3CCC(CN4CCN(Cc5ccc(-n6c(C(=O)NC(C)C(F)(F)F)nnc6-c6cc(CC)c(O)cc6O)cc5)CC4)CC3)CC2)ccc1Nc1ncc2c(n1)N(S(C)(=O)=O)c1ccccc1C(=O)N2C (centres unmarked) ?
(A) 100 to 1000 nM

(Q) What would you report for "CCOc1cc(N2CCC(C(=O)N3CCC(CN4CCN(Cc5ccc(-n6c(C(=O)NCC(F)(F)F)nnc6-c6cc(C)c(O)cc6O)cc5)CC4)CC3)CC2)ccc1Nc1ncc2c(n1)N(S(C)(=O)=O)c1ccccc1C(=O)N2C" ?
(A) < 100 nM

---

# Assay Target: HSP90α protein (Homo sapiens, UniProt P07900)
# Construct: purchased BPS Bioscience #50298
# Protocol Notes: HSP90α-binding FP (BODIPY) assay
# Condition Summary: FP competition with BODIPY-labeled RNK04010
# Procedure: Binding of test compounds to HSP90α protein was measured by fluorescent polarization (FP) using the HSP90α (N-terminal) Assay Kit (BPS Bioscience, #50298), following the manufacturer's instructions, except as noted. […] After the final step of adding HSP90α protein to each assay well, plates were mixed by brief shaking, incubated at 25° C. for 120 min for FITC-geldanamycin or 300 min for RNK04010, and fluorescence was measured using a PerkinElmer EnVision Plate Reader.
Property: IC50

(Q) Which IC50 value is on record for "CCCc1cc(-c2nnc(O)n2-c2ccc(CNC(=O)C3CCN(c4ccc(Nc5ncc6c(n5)N(S(C)(=O)=O)c5ccccc5C(=O)N6C)c(OCC)c4)CC3)cc2)c(O)cc1O" ?
(A) > 1000 nM

(Q) What would you report for "CCOc1cc(N2CCC(C(=O)N3CCC(N4CCN(Cc5ccc(-n6c(O)nnc6-c6cc(C(C)C)c(O)cc6O)cc5F)CC4)CC3)CC2)ccc1Nc1ncc2c(n1)N(S(C)(=O)=O)c1ccccc1C(=O)N2C" ?
(A) < 100 nM

(Q) What would you report for "CCOc1cc(N2CCC(C(=O)NCCOCCOCCOCCOc3ccc(Nc4cc(-n5nc(C(F)(F)F)c6c5CC(C)(C)CC6=O)ccc4C(N)=O)cc3)CC2)ccc1Nc1ncc2c(n1)N(S(C)(=O)=O)c1ccccc1C(=O)N2C" ?
(A) > 1000 nM

(Q) What would you report for "CCNC(=O)c1nnc(-c2cc(CC)c(O)cc2O)n1-c1ccc(CN2CCN(CC3CCN(C(=O)C4CCN(c5ccc(Nc6ncc7c(n6)N(S(C)(=O)=O)c6ccccc6C(=O)N7C)c(OCC)c5)CC4)CC3)CC2)cc1.Cl" ?
(A) < 100 nM

(Q) What would you report for "CCOc1cc(N2CCC(C(=O)NCCOCCOCCNC(=O)O[C@H]3CC[C@H](Nc4cc(-n5nc(C(F)(F)F)c6c5CC(C)(C)CC6=O)ccc4C(N)=O)CC3)CC2)ccc1Nc1ncc2c(n1)N(S(C)(=O)=O)c1ccccc1C(=O)N2C" ?
(A) > 1000 nM

(Q) What would you report for "CCOc1cc(N2CCC(C(=O)N3CCC(CN4CCN(Cc5ccc(-n6c(C(=O)NCC(F)(F)F)nnc6-c6cc(C)c(O)cc6O)cc5)CC4)CC3)CC2)ccc1Nc1ncc2c(n1)N(C)c1ccccc1C(=O)N2C" ?
(A) 100 to 1000 nM

(Q) What would you report for "CCOc1cc(N2CCC(C(=O)N3CCC(CN4CCN(CCOc5ccc(Nc6cc(-n7nc(C(F)(F)F)c8c7CC(C)(C)CC8=O)ccc6C(N)=O)cc5)CC4)CC3)CC2)ccc1Nc1ncc2c(n1)N(S(C)(=O)=O)c1ccccc1C(=O)N2C" ?
(A) > 1000 nM

(Q) What would you report for "CCOc1cc(N2CCC(C(=O)N3CCC(N4CCN(Cc5ccc(-n6c(O)nnc6-c6cc(C(C)C)c(O)cc6O)cc5)CC4)CC3)CC2)ccc1Nc1ncc2c(n1)N(C)c1ccccc1C(=O)N2C" ?
(A) 100 to 1000 nM

(Q) What would you report for "CCOc1cc(N2CCC(C(=O)N3CCC(CN4CCN(Cc5ccc(-n6c(O)nnc6-c6cc(CC)c(O)cc6O)cc5F)CC4)CC3)CC2)ccc1Nc1ncc2c(n1)N(S(C)(=O)=O)c1ccccc1C(=O)N2C" ?
(A) < 100 nM
